Source of measurements: the OPERA property sets (Mansouri et al. 2018)

Exercise: for every item that follows, state its recorded logP.
One number for each entry.

Example cases with answers are listed next.
O=C(O)CCCC1=NS(=O)(=O)c2cc(Cl)ccc2N1 : 0.83
O=C(O)CSC1=NS(=O)(=O)c2cc(Br)ccc2N1 : 0.92
Cc1ccc2c(c1)NC(CCCC(=O)O)=NS2(=O)=O : 0.33
O=C(O)CCC1=NS(=O)(=O)c2cc(Br)cc(Br)c2N1 : 1.35
O=C(O)CCCC1=NS(=O)(=O)c2cc(Cl)c(Cl)cc2N1 : 1.8
O=C(O)CCSC1=NS(=O)(=O)c2cc(Br)ccc2N1 : 1.77
COc1ccc2c(c1)NC(SCC(=O)O)=NS2(=O)=O : 0.37
COc1ccc2c(c1)NC(CCC(=O)O)=NS2(=O)=O : 0.18

Need logP for each of these compounds.
1. O=C(O)CSC1=NS(=O)(=O)c2cc(Cl)ccc2N1
2. Cc1ccc2c(c1)NC(SCCC(=O)O)=NS2(=O)=O
3. O=C(O)CCSC1=NS(=O)(=O)c2cc(Br)cc(Br)c2N1
4. COc1ccc2c(c1)NC(SCCC(=O)O)=NS2(=O)=O

1. 0.72
2. 1.16
3. 2.04
4. 0.96
